- Test system: TRZSS
- Assay name: Post-Emergent Test III (Wheat and Barley)
- Assay type: in vivo
- Test context: Triticum aestivum, post-emergence, 504 h; 35 g ai/ha, postemergence; read-out: Visual Growth Reduction (%) 21 Days After Application, TRZSS
Quick list: pest or weed control at 35 g/ha per entry.

{"Compound": "COC(=O)c1nc(-c2ccc(OC(F)F)nc2)c(F)c(N)c1Cl [Compound 71]", "System": "TRZSS", "pest or weed control at 35 g/ha": "60 to 74%"}
{"Compound": "COC(=O)c1nc(-c2ccc(C3CC3)nc2)c(F)c(N)c1Cl [Compound 49]", "System": "TRZSS", "pest or weed control at 35 g/ha": "75 to 84%"}
{"Compound": "COC(=O)c1nc(-c2ccc(C(F)(F)F)nc2)c(F)c(N)c1Cl [Compound 59]", "System": "TRZSS", "pest or weed control at 35 g/ha": "60 to 74%"}
{"Compound": "COC(=O)c1nc(-c2ccc(C(F)(F)F)nc2)c(Cl)c(N)c1Cl [Compound 83]", "System": "TRZSS", "pest or weed control at 35 g/ha": "60 to 74%"}
{"Compound": "Nc1c(F)c(-c2ccc(OC(F)F)nc2)nc(C(=O)O)c1Cl [Compound 66]", "System": "TRZSS", "pest or weed control at 35 g/ha": "75 to 84%"}
{"Compound": "Cc1c(-c2cc(N)c(Cl)c(C(=O)O)n2)ccc(Cl)c1F [Compound 52]", "System": "TRZSS", "pest or weed control at 35 g/ha": "60 to 74%"}
{"Compound": "Nc1c(F)c(-c2ccc(C3CC3)nc2)nc(C(=O)O)c1Cl [Compound 36]", "System": "TRZSS", "pest or weed control at 35 g/ha": "60 to 74%"}
{"Compound": "COC(=O)c1nc(-c2ccc(Cl)c(F)c2OC)cc(N)c1Cl [Compound 20]", "System": "TRZSS", "pest or weed control at 35 g/ha": "85 to 94%"}
{"Compound": "COC(=O)c1nc(-c2ccc(Cl)c(F)c2OC)c(F)c(N)c1Cl [Compound 39]", "System": "TRZSS", "pest or weed control at 35 g/ha": "85 to 94%"}
